system: PANC-1; assay: Inhibition of cells growth by colorimetric assay (SRB), PANC-1; type: cell-based; conditions: PANC-1; SRB, 48 hours exposure
measured_attribute: LC50 (concentration killing 50% of cells) (nM)
The response must be a number in nM with no trailing unit.

stdin: Reported LC50 (concentration killing 50% of cells) for C=COC(=O)Oc1cc2c(cc1OC)[C@@]1(CS[C@@H]3c4c(OC(C)=O)c(C)c5c(c4[C@H](COC1=O)N1C3[C@H]3c4c(cc(C)c(OC)c4O)C[C@@H]([C@@H]1O)N3C)OCO5)NCC2 (stereo partly shown) : what is it?
stdout: 35.9

====

Here, each record is paired with measured TGI SK-OV3 data.
system: SK-OV-3; experiment: Inhibition of cells growth by colorimetric assay (SRB), SK-OV-3; format: cell-based; details: SK-OV3; SRB, 48 hours exposure
Answer field: number only, no words.

Below, each entry is followed by its recorded TGI SK-OV3 result.
COc1cc2c(cc1OC)[C@@]1(CS[C@@H]3c4c(OC(C)=O)c(C)c5c(c4[C@H](COC1=O)N1C3[C@H]3c4c(cc(C)c(OC)c4O)C[C@@H]([C@@H]1O)N3C)OCO5)NCC2 (some centres unmarked) : 8.52E-10
COc1cc2c(cc1OC(=O)C(F)(F)C(F)(F)C(F)(F)F)CCN[C@]21CS[C@@H]2c3c(OC(C)=O)c(C)c4c(c3[C@H](COC1=O)N1C2[C@H]2c3c(cc(C)c(OC)c3O)C[C@@H]([C@@H]1O)N2C)OCO4 (some centres unmarked) : 4.76E-10
COc1cc2c(cc1O)CCN[C@]21CS[C@@H]2c3c(OC(C)=O)c(C)c4c(c3[C@H](COC1=O)N1C2[C@H]2c3c(cc(C)c(OC)c3OC(C)C)C[C@@H]([C@@H]1C#N)N2C)OCO4 (some centres unmarked) : 3.40E-06

stdin: Reported TGI SK-OV3 for C=COC(=O)Oc1cc2c(cc1OC)[C@@]1(CS[C@@H]3c4c(OC(C)=O)c(C)c5c(c4[C@H](COC1=O)N1C3[C@H]3c4c(cc(C)c(OC)c4O)C[C@@H]([C@@H]1O)N3C)OCO5)NCC2 (some centres unmarked) : what is it?
stdout: 1.04E-08

stdin: COc1cc2c(cc1OC(=O)c1cc3ccccc3oc1=O)CCN[C@]21CS[C@@H]2c3c(OC(C)=O)c(C)c4c(c3[C@H](COC1=O)N1C2[C@H]2c3c(cc(C)c(OC)c3O)C[C@@H]([C@@H]1O)N2C)OCO4 (some centres unmarked) , same question.
stdout: 8.93E-10

====

test system: MEL-28; test: Inhibition of cell growth by counting cells, MEL-28; format: cell-based, human; details: Homo sapiens, SK-MEL-28, 72 h; three days of incubation; read-out: IC50 (molar) MEL-28
measured_attribute: pIC50
Scale explanation: pIC50 corresponds to minus log10 of a concentration expressed in moles per litre.

CCCCCCCCCCCCCCCC(=O)Oc1c(C)c2c(c3c1[C@H]1SC[C@]4(NCCc5cc(OC(=O)OC(C)(C)C)c(OC)cc54)C(=O)OC[C@@H]3N3C1[C@H]1c4c(cc(C)c(OC)c4OC(=O)CCCCCCCCCCCCCCC)C[C@@H]([C@@H]3C#N)N1C)OCO2 (stereo partly shown) [Compound 122] : 6.08
CCCCCCCC(=O)Oc1c(C)c2c(c3c1[C@H]1SC[C@]4(NCCc5cc(O)c(OC)cc54)C(=O)OC[C@@H]3N3C1[C@H]1c4c(cc(C)c(OC)c4O)C[C@@H]([C@@H]3C#N)N1C)OCO2 (stereo partly shown) [Compound 144] : 8.93
COc1cc2c(cc1OC(=O)OCc1ccccc1)CCN[C@]21CS[C@@H]2c3c(OC(C)=O)c(C)c4c(c3[C@H](COC1=O)N1C2[C@H]2c3c(cc(C)c(OC)c3O)C[C@@H]([C@@H]1C#N)N2C)OCO4 (stereo partly shown) [Compound 27] : 9.95

# evaluate next
stdin: Please tell me: pIC50 of COc1cc2c(cc1OCc1ccccc1)CCN[C@]21CS[C@@H]2c3c(OC(C)=O)c(C)c4c(c3[C@H](COC1=O)N1C2[C@H]2c3c(cc(C)c(OC)c3O)C[C@@H]([C@@H]1O)N2C)OCO4 (stereo partly shown) [Compound 71] , system MEL-28?
stdout: 9.23

====

Each entry below carries its measured Toxicity Data Heart, system: Heart.
Answer field: number only, no words.

COc1cc2c(cc1OC)[C@@]1(CS[C@@H]3c4c(OC(C)=O)c(C)c5c(c4[C@H](COC1=O)N1C3[C@H]3c4c(cc(C)c(OC)c4O)C[C@@H]([C@@H]1O)N3C)OCO5)NCC2 (stereo partly drawn) : 4.54E-08
CCCCCCCC(=O)Oc1cc2c(cc1OC)[C@@]1(CS[C@@H]3c4c(OC(C)=O)c(C)c5c(c4[C@H](COC1=O)N1C3[C@@H]3N[C@@H](Cc4cc(C)c(OC)c(O)c43)[C@@H]1O)OCO5)NCC2 (stereo partly drawn) : 1.82E-07
C=COC(=O)Oc1cc2c(cc1OC)[C@@]1(CS[C@@H]3c4c(OC(C)=O)c(C)c5c(c4[C@H](COC1=O)N1C3[C@H]3c4c(cc(C)c(OC)c4OC(=O)OC=C)C[C@@H]([C@@H]1O)N3C)OCO5)NCC2 (stereo partly drawn) : 2.80E-08

stdin: Please tell me: Toxicity Data Heart of COc1cc2c(cc1OC(=O)CCc1ccccc1)CCN[C@]21CS[C@@H]2c3c(OC(C)=O)c(C)c4c(c3[C@H](COC1=O)N1C2[C@H]2c3c(cc(C)c(OC)c3O)C[C@@H]([C@@H]1O)N2C)OCO4 (stereo partly drawn) , system Heart?
stdout: 3.78E-08

stdin: COc1cc2c(cc1OC(=O)/C=C/c1ccccc1)CCN[C@]21CS[C@@H]2c3c(OC(C)=O)c(C)c4c(c3[C@H](COC1=O)N1C2[C@H]2c3c(cc(C)c(OC)c3O)C[C@@H]([C@@H]1O)N2C)OCO4 (stereo partly drawn) , same question.
stdout: 2.76E-08

stdin: C=CCOc1cc2c(cc1OC)[C@@]1(CS[C@@H]3c4c(OC(C)=O)c(C)c5c(c4[C@H](COC1=O)N1C3[C@H]3c4c(cc(C)c(OC)c4O)C[C@@H]([C@@H]1O)N3C)OCO5)NCC2 (stereo partly drawn) , same question.
stdout: 2.20E-07

stdin: COc1cc2c(cc1O)CCN[C@]21CS[C@@H]2c3c(OC(C)=O)c(C)c4c(c3[C@H](COC1=O)N1C2[C@H]2c3c(cc(C)c(OC)c3OC)C[C@@H]([C@@H]1O)N2C)OCO4 (stereo partly drawn) , same question.
stdout: 4.98E-08

stdin: C=COC(=O)Oc1cc2c(cc1OC)[C@@]1(CS[C@@H]3c4c(OC(C)=O)c(C)c5c(c4[C@H](COC1=O)N1C3[C@H]3c4c(cc(C)c(OC)c4OC(=O)OC=C)C[C@@H]([C@@H]1O)N3C)OCO5)N(C(=O)OC=C)CC2 (stereo partly drawn) , same question.
stdout: 1.13E-07

stdin: CCCC(=O)Oc1c(C)c2c(c3c1[C@H]1SC[C@]4(NCCc5cc(O)c(OC)cc54)C(=O)OC[C@@H]3N3C1[C@H]1c4c(cc(C)c(OC)c4O)C[C@@H]([C@@H]3O)N1C)OCO2 (stereo partly drawn) , same question.
stdout: 4.80E-07

====

test system: SK-BR-3; assay: Inhibition of cells growth by colorimetric assay (SRB), SK-BR-3; assay type: cell-based; settings: read-out: SK-BR3 LC50; SK-BR3; SRB, 48 hours exposure
measured_attribute: CC50 (nM)
The response must be a number in nM with no trailing unit.

COc1cc2c(cc1OC(=O)Cc1cc(=O)oc3cc(N(C)C)ccc13)CCN[C@]21CS[C@@H]2c3c(OC(C)=O)c(C)c4c(c3[C@H](COC1=O)N1C2[C@H]2c3c(cc(C)c(OC)c3OC(=O)Cc3cc(=O)oc5cc(N(C)C)ccc35)C[C@@H]([C@@H]1O)N2C)OCO4 (some centres unmarked) [Compound 77] : 8.12

stdin: Please tell me: CC50 of COc1cc2c(cc1OC(=O)Cc1cc(=O)oc3cc(N(C)C)ccc13)CCN[C@]21CS[C@@H]2c3c(OC(C)=O)c(C)c4c(c3[C@H](COC1=O)N1C2[C@H]2c3c(cc(C)c(OC)c3OC(=O)Cc3cc(=O)oc5cc(N(C)C)ccc35)C[C@@H]([C@@H]1O)N2C)OCO4 (some centres unmarked) [Compound 78] , system SK-BR-3?
stdout: 63.3

====

test system: LoVo; experiment: Inhibition of cells growth by colorimetric assay (SRB), LoVo; type: cell-based; conditions: LOVO; SRB, 48 hours exposure
measured_attribute: LC50 (concentration killing 50% of cells) (µM)
The response must be a number in µM with no trailing unit.

stdin: Reported LC50 (concentration killing 50% of cells) for C=COC(=O)Oc1cc2c(cc1OC)[C@@]1(CS[C@@H]3c4c(OC(C)=O)c(C)c5c(c4[C@H](COC1=O)N1C3[C@H]3c4c(cc(C)c(OC)c4O)C[C@@H]([C@@H]1O)N3C)OCO5)NCC2 (stereo partly shown) : what is it?
stdout: 0.012

Where do the numbers come from? From patent US7759345B2.
